Recorded pIC50, one value per entry.
- measurement.target: Ras farnesyl transferase (Homo sapiens, UniProt P49354+P49356)
- Construct: made in house
- assay.text: Ras farnesyl transferase enzyme inhibition, K-Ras substrate (H-Ras fused with polybasic lysine domain of K-Ras)
- Type: biochemical
- conditions.used: K-Ras substrate (fused protein of H-Ras with polybasic lysine domain of K-Ras); recombinant farnesyl transferase
pIC50: −log10 of the molar value.

Past entries and their recorded results:
smiles_repr=COc1cccc(CCn2cncc2Cn2cc(-c3cccc4ccccc34)c([N+](=O)[O-])c2)c1 measured_value="> 7.80"
smiles_repr=CCOCCCn1cncc1Cn1cc(-c2cccc3ccccc23)c([N+](=O)[O-])c1 measured_value="> 7.54"

Consider the record given below.
Query: Look at this compound and give its reported pIC50. Cc1ncn(Cc2ccc3c(c2)OCO3)c1Cn1cc(C(=O)N2CCN(C)CC2)c(-c2cccc3ccccc23)c1
Result: > 8.64
